// data source = patent US20100041665A1

Target: rhBACE-1 β-Secretase recombinant human (Homo sapiens)
Construct: purchased R&D Systems 931-AS
Sequence (P56817 46-457 limits assumed): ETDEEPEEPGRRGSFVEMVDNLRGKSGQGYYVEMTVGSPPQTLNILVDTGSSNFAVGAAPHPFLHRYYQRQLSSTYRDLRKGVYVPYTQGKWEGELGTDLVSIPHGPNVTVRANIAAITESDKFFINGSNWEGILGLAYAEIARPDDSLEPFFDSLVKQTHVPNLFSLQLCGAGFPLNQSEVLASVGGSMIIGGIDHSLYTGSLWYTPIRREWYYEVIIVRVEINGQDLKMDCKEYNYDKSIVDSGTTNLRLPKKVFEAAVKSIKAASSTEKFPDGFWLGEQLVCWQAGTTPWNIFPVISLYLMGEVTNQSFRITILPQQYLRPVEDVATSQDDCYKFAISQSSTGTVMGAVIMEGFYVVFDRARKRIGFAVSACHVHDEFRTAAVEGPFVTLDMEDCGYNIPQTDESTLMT
Test: BACE assay (FRET)
Type: biochemical
Details: compound at 10 μM; percentage of enzyme activity
measurementName: % of BACE activity (%)

[
  {
    "compound": "COc1ccc(C(=O)NCCc2c[nH]cn2)cc1N(C/C=C(\\C)CCC=C(C)C)C/C=C(\\C)CCC=C(C)C",
    "testSystem": "rhBACE-1 β-Secretase recombinant human (Homo sapiens)",
    "displayUnit": "%",
    "% of BACE activity": 115.5
  },
  {
    "compound": "COC(=O)c1ccc(OC)c(N(CC=C(C)CCC=C(C)CCC=C(C)CCC=C(C)C)CC=C(C)CCC=C(C)CCC=C(C)CCC=C(C)C)c1",
    "testSystem": "rhBACE-1 β-Secretase recombinant human (Homo sapiens)",
    "displayUnit": "%",
    "% of BACE activity": 41
  },
  {
    "compound": "CC(C)=CCC/C(C)=C/CC/C(C)=C/CN(C/C=C(\\C)CC/C=C(\\C)CCC=C(C)C)c1cccc(C(=O)O)c1",
    "testSystem": "rhBACE-1 β-Secretase recombinant human (Homo sapiens)",
    "displayUnit": "%",
    "% of BACE activity": 0
  },
  {
    "compound": "COc1ccc(C(=O)O)cc1N(CC=C(C)CCC=C(C)CCC=C(C)C)CC=C(C)CCC=C(C)CCC=C(C)C",
    "testSystem": "rhBACE-1 β-Secretase recombinant human (Homo sapiens)",
    "displayUnit": "%",
    "% of BACE activity": 46
  },
  {
    "compound": "COC(=O)c1ccc(OC)c(N(C/C=C(\\C)CC/C=C(\\C)CCC=C(C)C)C/C=C(\\C)CC/C=C(\\C)CCC=C(C)C)c1",
    "testSystem": "rhBACE-1 β-Secretase recombinant human (Homo sapiens)",
    "displayUnit": "%",
    "% of BACE activity": 100
  }
]

[1] COC(=O)c1ccc(O)c(N(C/C=C(\C)CCC=C(C)C)C/C=C(\C)CCC=C(C)C)c1
[2] COc1ccc(C(=O)NC(=N)n2cccn2)cc1N(C/C=C(\C)CCC=C(C)C)C/C=C(\C)CCC=C(C)C
[3] CCCOc1ccc(C(=O)OC)cc1NC/C=C(\C)CC/C=C(\C)CCC=C(C)C
Order the records by % of BACE activity, with each subsequent value no larger than the one before. Output spec: a listing of the labels in the requested order.
2, 3, 1

====

Molecular target: rhBACE-1 β-Secretase recombinant human (Homo sapiens)
Construct: purchased R&D Systems 931-AS
Experiment: BACE assay (FRET)
Assay type: biochemical
Conditions: compound at 10 μM; percentage of enzyme activity
measurementName: % of BACE activity (%)

# count of solved cases: 3
[
  {
    "molecule": "COC(=O)c1ccc(OC)c(N(CC=C(C)CCC=C(C)CCC=C(C)C)C(=O)OC(C)(C)C)c1 [Compound 33]",
    "% of BACE activity [%]": 61
  },
  {
    "molecule": "CC(C)=CCC/C(C)=C/CN(C/C=C(\\C)CCC=C(C)C)c1cccc(C(=O)O)c1 [Compound 24]",
    "% of BACE activity [%]": 1.6
  },
  {
    "molecule": "COC(=O)c1ccc(OC)c(NCC=C(C)CCC=C(C)COC2CCCCO2)c1 (stereo not drawn) [Compound 36]",
    "% of BACE activity [%]": 7
  }
]

[a] COc1ccc(C(=O)N2CCN(CC=Cc3ccccc3)CC2)cc1N(CC=C(C)CCC=C(C)C)CC=C(C)CCC=C(C)C [Compound 38]
[b] COCOc1ccc(C(=O)OC)cc1NC/C=C(\C)CC/C=C(\C)CCC=C(C)C [Compound 14]
[c] COC(=O)c1ccc(OC)c(N(C/C=C(\C)CCC=C(C)C)C/C=C(\C)CCC=C(C)C)c1 [Compound 17]
rank_up(items): orders items by reported % of BACE activity in ascending numerical order. Output spec: a listing of the labels in the requested order.
c, b, a
(c: 0%, b: 4%, a: 35%)

[I] COC(=O)c1ccc(OC)c(NCC=C(C)CCC=C(C)CCC=C(C)CCC=C(C)C)c1 [Compound 34]
[II] CC(C)=CCCC(C)=CCNc1cccc(C(=O)O)c1 [Compound 13]
# returns the entry with the larger % of BACE activity; inputs I and II Pick one; state its label.
I
(I: 100%, II: 70%)
